target: CDK4/Cyclin D1 (Homo sapiens); test: CDK4/CyclinD1 Enzymatic Activity Assay (TR-FRET); conditions: ATP 2 mM final, read-out: CDK4_D1 IC50
Sequence (P11802 whole entry): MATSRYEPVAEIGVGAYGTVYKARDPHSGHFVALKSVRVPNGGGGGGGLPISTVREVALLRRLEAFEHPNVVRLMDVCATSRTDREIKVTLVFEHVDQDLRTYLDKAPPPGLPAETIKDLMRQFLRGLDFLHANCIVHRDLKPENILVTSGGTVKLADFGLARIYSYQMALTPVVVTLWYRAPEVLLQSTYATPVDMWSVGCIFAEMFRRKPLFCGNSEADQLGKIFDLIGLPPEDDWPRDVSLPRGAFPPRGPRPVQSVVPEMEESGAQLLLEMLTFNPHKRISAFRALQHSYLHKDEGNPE
Sequence (P24385 whole entry partner): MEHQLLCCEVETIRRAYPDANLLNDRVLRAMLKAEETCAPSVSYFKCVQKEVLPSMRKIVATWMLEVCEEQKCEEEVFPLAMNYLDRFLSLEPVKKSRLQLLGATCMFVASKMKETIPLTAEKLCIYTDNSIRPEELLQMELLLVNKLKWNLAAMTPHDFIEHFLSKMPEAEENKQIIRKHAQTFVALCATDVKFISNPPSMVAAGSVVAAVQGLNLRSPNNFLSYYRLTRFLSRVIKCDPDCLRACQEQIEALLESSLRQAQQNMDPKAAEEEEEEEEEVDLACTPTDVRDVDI
In this section, each of the compounds is paired with its reported IC50.
metric: IC50

Cn1cc(S(=O)(=O)N2CCC(Nc3ncc(C(F)(F)F)c(-c4cc(C#N)cs4)n3)CC2)cn1
0.1 to 0.5 µM
Cc1sc(-c2nc(N[C@H]3CCN(S(=O)(=O)c4cn(C)cn4)C[C@H]3C)ncc2C(F)(F)F)cc1C#N
0.1 to 0.5 µM
C[C@@H]1CN(S(=O)(=O)c2c[nH]cn2)CC[C@@H]1Nc1ncc(C(F)(F)F)c(-c2cc(C(N)=O)cs2)n1
0.1 to 0.5 µM
Cc1cnc(-c2nc(N[C@@H]3CCN(S(=O)(=O)c4cnn(C)c4)C[C@H]3F)ncc2C(F)(F)F)s1
≤ 0.1 µM
Cc1sc(-c2nc(NC3CCN(S(=O)(=O)c4cn(C)cn4)CC3)ncc2C(F)(F)F)cc1C#N
≤ 0.1 µM
Cn1cnc(S(=O)(=O)N2CCC(Nc3ncc(C(F)(F)F)c(-c4ncc(CC(C)(C)O)s4)n3)CC2)c1
≤ 0.1 µM
CS(=O)(=O)N1CCC(Nc2ncc(C(F)(F)F)c(-c3cc(C(N)=O)cs3)n2)CC1
≤ 0.1 µM
Cc1cnc(-c2nc(N[C@H]3CCN(S(=O)(=O)c4cn(C)cn4)C[C@H]3F)ncc2C(F)(F)F)s1
≤ 0.1 µM
Cn1cnc(S(=O)(=O)N2CC[C@@H](Nc3ncc(C(F)(F)F)c(-c4cc(C(N)=O)ns4)n3)[C@H](F)C2)c1
≤ 0.1 µM
Cn1cnc(S(=O)(=O)N2CC[C@H](Nc3ncc(C(F)(F)F)c(-c4cc(C#N)c(CC(C)(C)O)s4)n3)[C@H](F)C2)c1
≤ 0.1 µM
Cc1sc(-c2nc(N[C@@H]3CCN(S(=O)(=O)c4cn(C)cn4)C[C@H]3F)ncc2C(F)(F)F)cc1C(N)=O
≤ 0.1 µM
Cn1cnc(S(=O)(=O)N2CC[C@H](Nc3ncc(C(F)(F)F)c(-c4cc(C(N)=O)c(CC(C)(C)O)s4)n3)[C@H](F)C2)c1
≤ 0.1 µM
C[C@@H]1CN(S(=O)(=O)c2cnn(C)c2)CC[C@@H]1Nc1ncc(C(F)(F)F)c(-c2cc(C(N)=O)c(CC(C)(C)O)s2)n1
≤ 0.1 µM
C[C@@H]1CN(S(=O)(=O)c2cn(C)cn2)CC[C@@H]1Nc1ncc(C(F)(F)F)c(-c2cc(C(N)=O)cs2)n1
≤ 0.1 µM
